Origin of measurements: ChEMBL document CHEMBL5050861

test: Stability of compound in rat liver microsomes assessed as half-life; assay type: ADME, Microsome
Endpoint name: half-life (min)
Write down the numeric answer in min and omit the unit.

stdin: Determine from records and report half-life for CC1=C(C(=O)NCc2cnn(C)c2)C(c2ccc(C)cc2Cl)N=C(Nc2nc3ccc(F)c(N)c3o2)N1 (stereo unspecified)
stdout: 16

---

assay: Stability of compound in rat microsomes assessed as half-life; format: ADME, Microsome
Answer each item with its documented half-life.

stdin: # return recorded half-life for input CC1=C(C(=O)NCc2cnn(Cc3ccccc3)c2)C(c2ccc(C)cc2Cl)N=C(Nc2nc3cccc(N)c3o2)N1 (centres undefined)
stdout: 6.73 min

stdin: Look up half-life of CC1=C(C(=O)Nc2cc(C(=O)O)ccn2)C(c2ccc(Cl)cc2Cl)N=C(Nc2nc3ccc(F)cc3o2)N1 (centres undefined) and report it.
stdout: > 30 min

stdin: Identify measured half-life corresponding to CC1=C(C(=O)Nc2ccc(F)cc2)C(c2ccccc2Cl)N=C(Nc2nc3ccccc3o2)N1 (centres undefined)
stdout: > 30 min

stdin: Identify half-life associated with the compound CC1=C(C(=O)Nc2cccc(C(N)=O)c2)C(c2ccccc2Cl)N=C(Nc2nc3ccccc3o2)N1 (centres undefined)
stdout: > 30 min
